# tested-system: human EGFR WT (NIH/3T3 cells, EGF-induced) (Homo sapiens, UniProt P00533)
# Sequence (P00533 25-1210): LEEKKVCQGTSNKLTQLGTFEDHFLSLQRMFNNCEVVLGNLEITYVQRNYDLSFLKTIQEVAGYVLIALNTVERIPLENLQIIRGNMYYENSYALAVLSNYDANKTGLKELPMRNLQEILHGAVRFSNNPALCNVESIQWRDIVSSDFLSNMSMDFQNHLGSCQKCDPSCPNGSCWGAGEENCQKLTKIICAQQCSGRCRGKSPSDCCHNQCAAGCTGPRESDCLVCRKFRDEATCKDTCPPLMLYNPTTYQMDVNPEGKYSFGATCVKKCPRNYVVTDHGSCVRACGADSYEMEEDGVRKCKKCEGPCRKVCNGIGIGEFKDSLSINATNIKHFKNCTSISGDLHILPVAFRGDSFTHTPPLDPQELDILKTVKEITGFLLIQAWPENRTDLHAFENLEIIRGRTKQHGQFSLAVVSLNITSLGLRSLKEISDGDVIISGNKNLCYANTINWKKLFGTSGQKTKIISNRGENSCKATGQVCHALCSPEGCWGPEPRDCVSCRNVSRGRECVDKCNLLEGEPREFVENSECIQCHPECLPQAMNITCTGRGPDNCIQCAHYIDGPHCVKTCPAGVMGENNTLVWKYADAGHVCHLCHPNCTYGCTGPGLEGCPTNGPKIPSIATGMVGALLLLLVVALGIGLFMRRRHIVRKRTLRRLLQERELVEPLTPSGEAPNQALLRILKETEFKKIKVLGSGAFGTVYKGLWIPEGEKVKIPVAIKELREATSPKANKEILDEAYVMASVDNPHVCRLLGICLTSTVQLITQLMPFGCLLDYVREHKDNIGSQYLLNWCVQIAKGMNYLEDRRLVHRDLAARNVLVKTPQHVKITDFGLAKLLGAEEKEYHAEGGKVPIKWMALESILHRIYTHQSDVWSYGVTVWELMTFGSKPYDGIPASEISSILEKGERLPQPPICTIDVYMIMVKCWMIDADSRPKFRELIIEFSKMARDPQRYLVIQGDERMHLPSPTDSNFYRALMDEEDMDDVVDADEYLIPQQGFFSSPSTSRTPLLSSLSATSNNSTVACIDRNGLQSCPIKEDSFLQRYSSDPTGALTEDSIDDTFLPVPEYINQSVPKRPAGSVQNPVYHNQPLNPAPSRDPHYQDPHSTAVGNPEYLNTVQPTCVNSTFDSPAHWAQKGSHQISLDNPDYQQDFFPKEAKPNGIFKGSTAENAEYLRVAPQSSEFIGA
# protocol: EGFR target modulation in engineered NIH/3T3 cell lines (phospho-EGFR Y1068 AlphaLISA), EGFR WT
# Type: cell-based
# condition-label: engineered NIH/3T3 cells, read-out: NIH3T3 IC50 (μM) EGFR (WT)
measured-quantity: IC50

Provide IC50 value for the following molecule: C=CC(=O)N1CCCCC(n2c(NC(=O)c3ccccc3)nc3cccc(C(=O)NCCS(C)(=O)=O)c32)C1 (stereo not drawn)
> 9.1 µM

Provide IC50 value for the following molecule: C=CC(=O)N1CCCC(n2c(NC(=O)c3cccc(C(F)(F)F)c3)nc3cnccc32)C1 (stereo not drawn)
> 10 µM

Provide IC50 value for the following molecule: C=CC(=O)N1CCCCC(n2c(NC(=O)c3cccc(C(F)(F)F)c3)nc3cc(C)ccc32)C1 (stereo not drawn)
> 10 µM

Provide IC50 value for the following molecule: C=CC(=O)N1CCCCC(n2c(NC(=O)c3ccccc3)nc3cccc(C(=O)NCCC(=O)OC)c32)C1 (stereo not drawn)
> 10 µM

Provide IC50 value for the following molecule: C=CC(=O)N1CCCCC(n2c(NC(=O)c3ccccc3)nc3cccc(C(=O)NCC(=O)OC)c32)C1 (stereo not drawn)
> 10 µM

Provide IC50 value for the following molecule: C=CC(=O)N1CCCC[C@H](n2c(NC(=O)c3cccc(C(F)(F)F)c3)nc3cccc(C)c32)C1 (single isomer, unassigned)
> 10 µM

###

Some compounds, each annotated with its measured IC50.
# tested-system: human EGFR L858R (NIH/3T3 cells) (Homo sapiens, UniProt P00533, L858R)
# Sequence (P00533 25-1210 L858R): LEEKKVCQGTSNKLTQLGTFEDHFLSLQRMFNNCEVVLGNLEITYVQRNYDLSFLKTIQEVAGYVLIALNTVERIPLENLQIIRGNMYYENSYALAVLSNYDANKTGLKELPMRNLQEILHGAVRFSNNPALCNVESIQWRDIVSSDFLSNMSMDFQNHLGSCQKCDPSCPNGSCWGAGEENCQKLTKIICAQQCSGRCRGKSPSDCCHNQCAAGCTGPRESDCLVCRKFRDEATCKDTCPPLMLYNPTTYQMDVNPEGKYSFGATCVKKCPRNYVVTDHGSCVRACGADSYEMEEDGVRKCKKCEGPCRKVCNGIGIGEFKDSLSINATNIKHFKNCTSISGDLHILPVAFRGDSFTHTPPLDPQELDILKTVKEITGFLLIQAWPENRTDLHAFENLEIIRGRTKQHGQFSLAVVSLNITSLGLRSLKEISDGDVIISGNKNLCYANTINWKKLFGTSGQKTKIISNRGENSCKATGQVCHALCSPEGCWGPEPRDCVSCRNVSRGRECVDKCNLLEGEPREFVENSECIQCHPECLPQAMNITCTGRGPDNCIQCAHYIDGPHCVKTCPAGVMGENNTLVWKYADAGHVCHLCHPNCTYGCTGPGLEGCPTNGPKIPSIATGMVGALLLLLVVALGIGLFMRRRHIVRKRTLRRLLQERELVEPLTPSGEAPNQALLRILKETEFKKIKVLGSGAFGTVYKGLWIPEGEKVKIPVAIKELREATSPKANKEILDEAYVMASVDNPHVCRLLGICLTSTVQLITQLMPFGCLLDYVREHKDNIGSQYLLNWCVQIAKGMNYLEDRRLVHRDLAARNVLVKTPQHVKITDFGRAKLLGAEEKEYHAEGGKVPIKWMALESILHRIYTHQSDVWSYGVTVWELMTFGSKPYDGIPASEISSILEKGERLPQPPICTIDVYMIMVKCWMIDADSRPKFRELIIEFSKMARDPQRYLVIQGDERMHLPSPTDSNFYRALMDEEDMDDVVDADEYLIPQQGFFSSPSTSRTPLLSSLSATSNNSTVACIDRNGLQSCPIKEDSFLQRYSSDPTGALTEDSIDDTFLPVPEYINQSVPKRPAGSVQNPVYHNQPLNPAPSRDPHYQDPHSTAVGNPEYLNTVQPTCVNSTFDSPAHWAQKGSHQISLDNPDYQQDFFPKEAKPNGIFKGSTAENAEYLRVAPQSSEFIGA
# protocol: EGFR target modulation in engineered NIH/3T3 cell lines (phospho-EGFR Y1068 AlphaLISA), EGFR L858R
# Type: cell-based
# condition-label: engineered NIH/3T3 cells, read-out: NIH3T3 IC50 (μM) EGFR (L858R)

C=CC(=O)N1CCCCC(n2c(NC(=O)c3ccccc3)nc3cccc(C(=O)NCC(=O)O)c32)C1 (centres unmarked) [Example 17-137]; > 10 µM
COc1cc(C(=O)Nc2nc3cccc(C)c3n2[C@@H]2CCCCN(C(=O)/C=C/CN(C)C)C2)cc(Cl)n1 [Example 17-75]; 0.025 µM

Provide the reported IC50 (system: human EGFR L858R (NIH/3T3 cells) (Homo sapiens, UniProt P00533, L858R)) for Cc1cccc2nc(NC(=O)c3ccnnc3)n([C@@H]3CCCCN(C(=O)C#CCN(C)C)C3)c12 [Example 17-87]
< 0.001 µM

Provide the reported IC50 (system: human EGFR L858R (NIH/3T3 cells) (Homo sapiens, UniProt P00533, L858R)) for C=CC(=O)N1CCCC[C@@H](n2c(NC(=O)c3ccnc(C)c3)nc3cc(CN4CC[C@H](OC)C4)cc(C)c32)C1 [Example 17-149]
< 0.001 µM

Provide the reported IC50 (system: human EGFR L858R (NIH/3T3 cells) (Homo sapiens, UniProt P00533, L858R)) for C=CC(=O)N1CCCC[C@@H](n2c(NC(=O)c3ccnc(C)c3)nc3cc(CN4CCCCC4)cc(C)c32)C1 [Example 17-144]
< 0.001 µM

###

# tested-system: H1975 (EGFR L858/T790M) (Homo sapiens, UniProt P00533, L858R/T790M)
# Sequence (P00533 25-1210 T790M/L858R): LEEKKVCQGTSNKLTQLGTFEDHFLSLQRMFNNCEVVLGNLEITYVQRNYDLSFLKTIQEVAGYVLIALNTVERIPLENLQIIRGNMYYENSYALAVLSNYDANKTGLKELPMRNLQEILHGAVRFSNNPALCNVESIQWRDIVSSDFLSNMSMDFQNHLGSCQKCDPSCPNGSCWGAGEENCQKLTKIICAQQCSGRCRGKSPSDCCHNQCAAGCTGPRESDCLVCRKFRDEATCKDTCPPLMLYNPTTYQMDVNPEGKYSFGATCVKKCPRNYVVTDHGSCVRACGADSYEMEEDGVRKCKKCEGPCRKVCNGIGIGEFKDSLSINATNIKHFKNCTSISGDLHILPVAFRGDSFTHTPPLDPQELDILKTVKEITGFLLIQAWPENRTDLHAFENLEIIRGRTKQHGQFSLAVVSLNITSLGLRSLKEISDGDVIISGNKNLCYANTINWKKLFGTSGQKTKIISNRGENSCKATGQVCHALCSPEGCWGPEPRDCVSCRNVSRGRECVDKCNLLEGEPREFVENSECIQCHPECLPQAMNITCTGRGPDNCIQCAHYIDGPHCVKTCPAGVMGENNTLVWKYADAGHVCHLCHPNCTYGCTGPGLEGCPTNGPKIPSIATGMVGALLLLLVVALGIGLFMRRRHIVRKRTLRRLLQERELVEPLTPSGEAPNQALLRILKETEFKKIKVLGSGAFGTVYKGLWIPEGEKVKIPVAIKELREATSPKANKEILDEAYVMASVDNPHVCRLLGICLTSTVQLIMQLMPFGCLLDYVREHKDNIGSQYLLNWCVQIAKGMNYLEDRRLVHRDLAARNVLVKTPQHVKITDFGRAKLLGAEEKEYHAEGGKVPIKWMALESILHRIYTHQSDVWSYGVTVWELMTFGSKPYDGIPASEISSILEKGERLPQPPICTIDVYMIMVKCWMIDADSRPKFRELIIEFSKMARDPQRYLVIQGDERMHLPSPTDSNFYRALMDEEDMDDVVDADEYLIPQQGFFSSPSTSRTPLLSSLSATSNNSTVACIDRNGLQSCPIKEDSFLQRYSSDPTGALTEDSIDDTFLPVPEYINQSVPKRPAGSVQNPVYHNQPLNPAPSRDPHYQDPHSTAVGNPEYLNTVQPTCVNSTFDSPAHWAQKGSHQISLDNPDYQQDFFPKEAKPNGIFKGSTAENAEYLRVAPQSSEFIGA
# protocol: EGFR target modulation in H1975 cell line (phospho-EGFR Y1173 ELISA)
measured-quantity: IC50

Cc1ccccc1-c1cc(C(=O)Nc2nc3cccc(C)c3n2[C@@H]2CCCCN(C(=O)/C=C/CN(C)C)C2)ccn1; < 1 nM
C=CC(=O)N1CCCC[C@@H](n2c(NC(=O)c3ccnc(C)c3)nc3cc(CN4CCC(F)(F)C4)cc(C)c32)C1; < 1 nM
Cc1cccc2nc(NC(=O)c3cncc(-n4cccc4)c3)n([C@@H]3CCCCN(C(=O)/C=C/CN(C)C)C3)c12; < 1 nM

Provide IC50 value for the following molecule: Cc1cccc2nc(NC(=O)c3cccc(S(C)(=O)=O)c3)n(C3CCCCN(C(=O)/C=C/CN(C)C)C3)c12 (stereo not shown)
2 nM

###

# tested-system: human EGFR L858R (NIH/3T3 cells) (Homo sapiens, UniProt P00533, L858R)
# protocol: EGFR target modulation in engineered NIH/3T3 cell lines (phospho-EGFR Y1068 AlphaLISA), EGFR L858R
# Type: cell-based
# condition-label: engineered NIH/3T3 cells, read-out: NIH3T3 IC50 (μM) EGFR (L858R)
# Description: EGFR Target Modulation in Engineered NIH/3T3 Cell Lines Tissue Culture. The cells were harvested with 0.05% Trypsin/EDTA (Hyclone #SH30236.01), re-suspended in 5% FBS/DMEM Pen/Strep without Puromycin and plated at 9,000 cells per well in 50 μl of media in a 384-well black plate with clear bottoms (Greiner #789068G). […] With these parameters, the IC50's for each compound in each cell line was calculated using non-linear curve fitting analysis.
Some molecules, each annotated with its measured IC50.

C=CC(=O)N1CCCC[C@@H](n2c(NC(=O)c3ccnc(C)c3)nc3cc(CN4CCC(F)(F)C4)cc(C)c32)C1; < 0.001 µM
C=CC(=O)N1CCCCC(n2c(NC(=O)c3ccccc3)nc3cccc(C(=O)NCCC(=O)O)c32)C1 (centres unmarked); > 10 µM
C=CC(=O)N1CCC[C@@H](n2c(NC(=O)c3cccc(C(F)(F)F)c3)nc3cc(CN4C[C@@H](O)[C@H](O)C4)ccc32)C1; 8.2 µM
C=CC(=O)N1CCCC[C@@H](n2c(NC(=O)c3ccnc(C)c3)nc3cc(CN4CC[C@H](F)C4)cc(C)c32)C1; < 0.001 µM
Cc1cccc2nc(NC(=O)c3ccnc(OC(F)(F)F)c3)n([C@@H]3CCCCN(C(=O)/C=C/CN(C)C)C3)c12; 0.001 µM
Cc1cc(C(=O)Nc2nc3cccc(Cl)c3n2[C@@H]2CCCCN(C(=O)/C=C/CN3CCCC3)C2)ccn1; 0.004 µM

Provide IC50 value for the following molecule: C=CC(=O)N1CCCC[C@@H](n2c(NC(=O)c3ccccc3)nc3cccc(CN4CCS(=O)(=O)CC4)c32)C1
0.047 µM

Provide IC50 value for the following molecule: CO[C@H]1CCN(C/C=C/C(=O)N2CCCC[C@@H](n3c(NC(=O)c4ccnc(C)c4)nc4cccc(Cl)c43)C2)C1
0.006 µM

###

# tested-system: EGFR(L858R/T790M) (Homo sapiens, UniProt P00533, L858R/T790M)
# Construct: purchased from Carna (GST-a.a. 669-1210)
# Sequence (P00533 669-1210 T790M/L858R): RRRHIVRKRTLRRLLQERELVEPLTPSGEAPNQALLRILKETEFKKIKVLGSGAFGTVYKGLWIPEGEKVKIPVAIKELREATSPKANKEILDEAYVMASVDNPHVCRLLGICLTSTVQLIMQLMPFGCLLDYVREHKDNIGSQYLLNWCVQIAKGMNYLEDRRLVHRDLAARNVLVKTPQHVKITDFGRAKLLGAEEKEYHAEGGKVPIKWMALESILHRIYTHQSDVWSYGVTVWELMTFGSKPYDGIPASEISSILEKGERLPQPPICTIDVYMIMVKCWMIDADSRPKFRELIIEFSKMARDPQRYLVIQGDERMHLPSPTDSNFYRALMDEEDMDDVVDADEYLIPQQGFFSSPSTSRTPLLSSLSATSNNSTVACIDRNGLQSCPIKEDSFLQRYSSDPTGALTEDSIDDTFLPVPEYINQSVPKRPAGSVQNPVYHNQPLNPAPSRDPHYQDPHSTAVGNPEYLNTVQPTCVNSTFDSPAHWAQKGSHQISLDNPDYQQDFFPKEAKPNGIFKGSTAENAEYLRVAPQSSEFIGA
# protocol: EGFR biochemical assay (HTRF), IC50 determinations
# condition-label: EGFR (L858R/T790M) with 90 min pre-incubation; read-out: IC50 (μM) Column B
measured-quantity: IC50

Field: example entries. Status: answers known.
C=CC(=O)N1CCC[C@@H](n2c(NC(=O)c3cccc(C(F)(F)F)c3)nc3cc(CN4CCCCC4)ccc32)C1; 0.005 µM
Cc1cccc2nc(NC(=O)c3ccnc(OC(F)(F)F)c3)n([C@@H]3CCCCN(C(=O)/C=C/CN(C)C)C3)c12; < 0.001 µM
C=CC(=O)N1CCCC[C@@H](n2c(NC(=O)c3ccnc(C)c3)nc3cc(CN4CC(OC)C4)cc(C)c32)C1; < 0.001 µM
C=CC(=O)N1CCCC[C@@H](n2c(NC(=O)c3cccc(C(F)(F)F)c3)nc3ccccc32)C1; < 0.001 µM
C=CC(=O)N1CCCC[C@@H](n2c(NC(=O)c3cnnc(C)c3)nc3cccc(C)c32)C1; < 0.001 µM

Consider the record given below.
Provide IC50 value for the following molecule: CO[C@H]1CCN(C/C=C/C(=O)N2CCCC[C@@H](n3c(NC(=O)c4ccnc(C)c4)nc4cccc(Cl)c43)C2)C1
< 0.001 µM

###

Some molecules, each annotated with its measured pIC50.
# tested-system: H1975 (EGFR L858/T790M) (Homo sapiens, UniProt P00533, L858R/T790M)
# protocol: EGFR target modulation in H1975 cell line (phospho-EGFR Y1173 ELISA)
# Experimental: EGFR Target Modulation in H1975, H3255 and HCC827 Cell Lines Tissue Culture. Cells were maintained in 10% FBS/RPMI supplemented with 100 μg/ml Penicillin/Streptomycin (Hyclone #SH30236.01). […] The cells were allowed to incubate overnight in a 37° C., 5% CO2 humidified tissue culture incubator. […] Signal was read on EnVision plate reader using built-in UltraLUM setting. […] With these parameters, the IC50's for each compound in each cell line was calculated using non-linear curve fitting analysis.
Quick note: pIC50 values are minus log10 of concentrations in mol/L.

Field: example entries. Status: answers known.
Cc1cccc2nc(NC(=O)c3ccnnc3)n(C3CCCCN(C(=O)/C=C/CN(C)C)C3)c12 (centres unmarked); 8.15
C=CC(=O)N1CCCC[C@@H](n2c(NC(=O)c3cc(C)nc(C)c3)nc3ccc(OCCN4CCCC4)c(Cl)c32)C1; 9.00
Cc1cc(C(=O)Nc2nc3cccc(Cl)c3n2[C@@H]2CCCCN(C(=O)/C=C/CN3CC[C@@H](F)C3)C2)ccn1; 8.22
Cc1ncc(C(=O)Nc2nc3cccc(C)c3n2C2CCCCN(C(=O)/C=C/CN(C)C)C2)s1 (single isomer, unassigned); 8.40
C=CC(=O)N1CCCC[C@@H](n2c(NC(=O)c3cccc(F)c3F)nc3cc(CN4CC[C@@H](OC)C4)cc(C)c32)C1; 9.00

Provide pIC50 value for the following molecule: Cc1cccc2nc(NC(=O)c3ccnnc3)n([C@@H]3CCCCN(C(=O)/C=C/CN(C)C)C3)c12
8.52

Provide pIC50 value for the following molecule: Cc1cc(C(=O)Nc2nc3cccc(C)c3n2[C@@H]2CCCCN(C(=O)/C=C/CN(C)C)C2)ccn1
9.00

Provide pIC50 value for the following molecule: C=CC(=O)N1CCCC[C@@H](n2c(NC(=O)c3ccnc(C)c3)nc3ccc(OCCN4CCCC4)c(Cl)c32)C1
9.00

Provide pIC50 value for the following molecule: Cc1cc(C(=O)Nc2nc3cccc(Cl)c3n2[C@@H]2CCCCN(C(=O)/C=C/C(C)(C)N(C)C)C2)ccn1
5.98

Provide pIC50 value for the following molecule: C=CC(=O)N1CCCC[C@@H](n2c(NC(=O)c3ccnc(C)c3)nc3cc(CN4CC[C@@H](F)C4)cc(C)c32)C1
9.00

Provide pIC50 value for the following molecule: C=CC(=O)N1CCCC[C@@H](n2c(NC(=O)c3cc(C)nc(C)c3)nc3cc(CN4CC[C@H](OC)C4)ccc32)C1
8.70

Provide pIC50 value for the following molecule: COc1cccc2nc(NC(=O)c3ccnc(C)c3)n([C@@H]3CCCCN(C(=O)/C=C/CN(C)C)C3)c12
7.85

Provide pIC50 value for the following molecule: Cc1cccc2nc(NC(=O)c3cc(F)c(F)c(F)c3)n(C3CCCCN(C(=O)/C=C/CN(C)C)C3)c12 (centres unmarked)
8.30

FYI, the data here is from patent US9440957B2.
